Test system: HOP-62 NSCLC
Test: NCI-60 one-dose screen, 48 h (100 = growth as untreated, 0 = no growth, -100 = all killed)
Details: 10 µM unless noted
Compounds without any hit were thinned out: in the full panel of roughly 83,000, 20% have a hit.
I'd appreciate it if you could supply growth values for the items below.
// units = %; emit number, no label

Looking for the measured growth of COc1cc2c(cc1-c1c(C)noc1C)ncc1nc(C3CCOCC3)n([C@H](C)COC(F)F)c12 , can you help?
35.2

And for O=Nc1c(O)c(Cl)cc2ccccc12 ?
75.1

And for Cc1nn(-c2ccc(F)cc2)c2ncnc(Oc3ccc(NC(=O)Nc4ccc(Cl)c(C(F)(F)F)c4)cc3)c12 ?
105

And for COc1cc2nnc3c4cccnc4[nH]c3c2cc1OC ?
96.9

And for O=C1CC[C@H](c2ccc(O)c3c2C(=O)[C@@H]2O[C@@H]2C3=O)c2cccc(O)c21 ?
79

And for Cc1nn(-c2cc(=O)[nH]c3ccc(Cl)cc23)c(N)c1C#N ?
94.9

And for CCCCC(=O)OCC1OC(n2cnc3c(=S)nc[nH]c32)C(OC(=O)CCCC)C1OC(=O)CCCC (stereo not given) ?
25.4

And for CC(=O)c1cc2c(N)c(C(=O)Nc3ccccc3)sc2nc1C ?
75.1

And for O=C(N=Nc1c(O)[nH]c2ccccc12)c1cc(-c2ccccc2)on1 ?
102

And for O=C1c2c(O)cc(O)cc2-c2c(-c3ccc(O)cc3)oc3cc(O)cc1c23 ?
22.1

----------
Test system: UO-31 renal
Experiment: NCI-60 one-dose screen, 48 h
Conditions: 10 µM unless noted
This is part of a sample that, as a whole, favours compounds with a hit. Of some 83,000 tested, about 20% had one in any assay. Activity calls are given as the source filed them. How the source made its calls: active means growth percent below 10; inactive means the rest.
Please state which outcome applies, choosing from active, inactive

Field: outcome | Entry: CC1CCNC(C)C1 (stereo not given)
inactive

And for N#C/C(=C\c1ccc(-c2ccc(Cl)c(Cl)c2)o1)c1nc(-c2ccco2)cs1 ?
inactive

And for O=C1c2cc3c(cc2-c2c1c1ccc(F)cc1c(=O)n2C[C@H](O)[C@@H](O)[C@H](O)CO)OCO3 ?
active

And for COc1ccc(S(=O)(=O)N2CC3(COC3)C2)cc1NC(=O)c1[nH]c(C)c2c1CCCCC2=O ?
inactive

And for O=C(Cn1cccc(Nc2ccccc2)c1=O)Nc1ccccc1 ?
inactive

And for COc1ccc(N=Nc2nccs2)c(O)c1 ?
inactive

And for COc1ccc(C2Nc3c(c(C(C)(C)C)nn3-c3ccccc3)C(=O)CS2)cc1 (stereo not given) ?
inactive

And for O=C1OCC2=C1C(c1ccncc1)c1cc3c(cc1N2CCO)OCO3 (stereo not given) ?
inactive

And for Cc1cc(C)nc(SC2=C(Nc3ccc(C)c(Cl)c3)C(=O)N(Cc3ccccc3)C2=O)n1 ?
inactive

And for OC(COc1cccc2ccccc12)CN1CCN(c2ccccc2Cl)CC1 (stereo not given) ?
inactive

----------
Test system: ACHN renal
Test: NCI-60 one-dose screen, 48 h
Conditions: 10 µM unless noted
Compounds without any hit were thinned out: in the full panel of roughly 83,000, 20% have a hit. Calls of active or inactive are those of the source. The calls were made as follows: active = growth percent below 10; inactive = the rest.
Please state which outcome applies, choosing from 1 (yes) = active, 0 (no) = inactive

Field: outcome | Entry: COc1ccc(CN2c3ccccc3Sc3ccccc32)cc1O
0 (no)

And for COc1cc2nc(N3CCCC3)nc(NCCc3ccccc3)c2cc1OC ?
0 (no)

And for Cc1nc(Nc2ccc(F)c(Cl)c2)sc1C(=O)O ?
0 (no)

And for c1ccc(-c2cc3n4c(-c5ccccc5)nn(-c5ccccc5)c4cnc-3n2)cc1 ?
0 (no)

And for CC(=O)Nc1ccc(-n2c(O)c(/C=N/NC(=O)Cc3ccccc3Nc3c(Cl)cccc3Cl)sc2=S)cc1 ?
0 (no)

And for COc1cccc(/C=C2\SC(=Nc3ccc(NC(C)=O)cc3)NC2=O)c1OC ?
0 (no)

And for Cn1ccnc1C(=O)/C=C/c1ccccc1 ?
0 (no)

And for COc1cccc(-c2nc3sccn3c2-c2ccnc(NCCNS(=O)(=O)c3ccccc3)c2)c1 ?
0 (no)

And for c1ccc(Cn2cc(-c3nc4ccccc4s3)c3cccnc32)cc1 ?
0 (no)

And for CC[C@H]1OC(=O)[C@H](C)[C@@H](O[C@H]2C[C@@](C)(OC)[C@@H](O)[C@H](C)O2)[C@H](C)[C@@H](O[C@@H]2O[C@H](C)C[C@H](N(C)C)[C@H]2O)[C@](C)(O)C[C@H](C)CN(C)[C@H](C)[C@@H](O)[C@]1(C)O ?
0 (no)

And for C=CC(=O)Nc1cccc(-c2nc(SC)nc(NCc3ccccc3)c2C#N)c1 ?
0 (no)

And for COc1ccc(C2C(C#N)=C(N)Oc3n[nH]c(-c4cccs4)c32)cc1I (stereo not given) ?
0 (no)

And for COc1cc(-c2nn(-c3ccc(C)cc3)cc2C(=O)O)ccc1O ?
0 (no)

And for Nc1ccc(S(=O)(=O)O)c2ccc(N=Nc3ccc(N=Nc4ccc(S(=O)(=O)O)cc4)c4ccccc34)c(O)c12 ?
0 (no)

And for Cc1ccc2c(C(C[N+](=O)[O-])c3ccccc3F)c(-c3ccccc3)[nH]c2c1 (stereo not given) ?
0 (no)

And for O=C(COc1cccc(/C=C2\CSc3ccccc3C2=O)c1)Nc1nccs1 ?
0 (no)

And for Cc1nn(-c2cc(=O)[nH]c3ccc(Cl)cc23)c(N)c1C#N ?
0 (no)

And for CCc1nnc(CNc2ccc(Cl)cc2)o1 ?
0 (no)

And for C=C1C(=O)O[C@H]2[C@H]1CC/C(COC(=O)c1cc3cc(OC)ccc3[nH]1)=C\CC[C@@]1(C)O[C@@H]21 ?
1 (yes)

And for COc1cc2nc(N3CCCC3)nc(NCc3ccccc3)c2cc1OC ?
0 (no)
